- System name: 3-pTza peptide (Biotin-AminocaproicAcid-A.G.A.G.3-pTza.A.G.A.G)
- Assay notes: BLI; biotinylated peptide captured on streptavidin biosensors at 20 nM; IgG in solution at 20-200 nM; Octet HTX; 1x HBS-T, 1% BSA
Some binders, each annotated with its measured koff.
Entry rule: numbers only, all in s⁻¹.

Binder: hSC44.28 IgG (antibody, V domains shown) VH: EVQLVESGGGLVQPGGSLRLSCTASGFSIDSYGFSWVRQAPGKGLEHIGYLTAGGRAFYASWAKSRSTITRNTNENTVTLKMNSLRAEDTAVYYCAKLGTGSPLAIWG VL: DIQMTQSPSSLSASVGDRVTITCRASQSVWRNKFVAWYQQKPGKAPKRLIYAIASLYSGVPSRFSGSGSGTDFTLTISSLQPEDFATYYCVGHYGSENDAYYAFGQGTKVEIK
Unit of measure: s⁻¹
koff: 3e-05
//
Binder: hSC44.13 IgG (antibody, V domains shown) VH: EVQLVESGGGLVQPGGSLRLSCTASGFSIDSYGFSWVRQAPGKGLEHIGYLTAGGRAFYASWAKSRSTITRNTNENTVTLKMNSLRAEDTAVYYCAKLGTGSPVAIWG VL: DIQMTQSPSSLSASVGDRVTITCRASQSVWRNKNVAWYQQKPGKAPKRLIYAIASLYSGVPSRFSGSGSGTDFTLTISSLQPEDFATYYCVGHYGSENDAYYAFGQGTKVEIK
Unit of measure: s⁻¹
koff: 7.37e-05
//
Binder: hSC44.8 IgG (antibody, V domains shown) VH: EVQLVESGGGLVQPGGSLRLSCTASGFSIDSYGFSWVRQAPGKGLEHIGYLTAGGRAFYASWAKSRSTITRNTNENTVTLKMNSLRAEDTAVYYCAKIGTGSRVAIWG VL: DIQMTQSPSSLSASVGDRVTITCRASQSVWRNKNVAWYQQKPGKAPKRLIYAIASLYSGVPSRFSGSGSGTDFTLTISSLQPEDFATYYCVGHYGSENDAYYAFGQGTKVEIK
Unit of measure: s⁻¹
koff: 6.66e-05

Here is the next item to consider.
Consider hSC44.22 IgG (antibody, V domains shown) VH: EVQLVESGGGLVQPGGSLRLSCTASGFSIDSYGFSWVRQAPGKGLEHIGYLTAGGRAFYASWAKSRSTITRNTNENTVTLKMNSLRAEDTAVYYCAKLGTGTPVAIWG VL: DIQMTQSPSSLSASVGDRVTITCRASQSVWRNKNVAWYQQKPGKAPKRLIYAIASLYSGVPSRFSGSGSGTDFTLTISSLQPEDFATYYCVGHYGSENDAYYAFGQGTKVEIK . Its measured koff is 4.49e-05
